src = PubChem BioAssay (NCATS)

Property: activity, negative = cell killing; scope: individual molecules
PROCEDURE_DETAILS: Drug repurposing screens with cells derived from glioblastoma tumor samples (AID 1345199); note: % is set by controls: 0 for no effect and ±100 for the full control effect
RUN_CONDITIONS: GBM patient neurospheres viability, ATP luminescence, 48 h; at 45.9 µM (top of the series); tumour line B
Records with an inconclusive call do not appear.
PARAMETER_MEASURED: activity, negative = cell killing (%)

1) Oc1ccc(Cl)c2c1CCC2
-12.8
2) OCc1ccccc1
-6.55
3) C=CC[C@@H]1/C=C(\C)C[C@H](C)C[C@H](OC)[C@H]2O[C@@](O)(C(=O)C(=O)N3CCCC[C@H]3C(=O)O[C@H](/C(C)=C/[C@@H]3CC[C@@H](O)[C@H](OC)C3)[C@H](C)[C@@H](O)CC1=O)[C@H](C)C[C@@H]2OC
-12.2
4) CC[C@@H](C)[C@H](N)C(=O)O
-5.93
5) COc1ccc2c(=O)c(C)c(-c3ccccc3)oc2c1CN(C)C
-11.5
6) O=C1[O][Bi][O]c2ccccc21
-16
7) C#C[C@]1(O)CC[C@@H]2[C@H]3CCC4=CC(=O)CC[C@H]4[C@H]3C(=C)C[C@@]21CC
2.86
8) FC(F)(F)COCC(F)(F)F
-8.9
9) Nc1nc(/C(=C/CC(=O)O)C(=O)N[C@@H]2C(=O)N3C(C(=O)O)=CCS[C@H]23)cs1
-0.0909
10) Cn1c(=O)c2c(ncn2CCOC(=O)C(C)(C)Oc2ccc(Cl)cc2)n(C)c1=O
-17
11) CC12CCC(C[N+](C)(CCC[N+](C)(C)C)C1)C2(C)C (configuration not stated)
-11.8
12) NCCCC[C@H](N)C(=O)O
-13.6
